tgt: ATP-citrate lyase (ACLY) (Homo sapiens)
assay overview: steady-state intrinsic fluorescence titration, one-site fit
Format: binding
assay metric: pKd
# reply with the number alone; pKd is -log10 of concentration in mol/L

Exam item: Provide measured pKd value, entry: O=C(O)CC(O)(CC(=O)O)C(=O)O [citrate]
Marked response: 5.47

###

tgt: ATP-citrate lyase (ACLY) (Homo sapiens, UniProt P53396)
Sequence (P53396 1-1101): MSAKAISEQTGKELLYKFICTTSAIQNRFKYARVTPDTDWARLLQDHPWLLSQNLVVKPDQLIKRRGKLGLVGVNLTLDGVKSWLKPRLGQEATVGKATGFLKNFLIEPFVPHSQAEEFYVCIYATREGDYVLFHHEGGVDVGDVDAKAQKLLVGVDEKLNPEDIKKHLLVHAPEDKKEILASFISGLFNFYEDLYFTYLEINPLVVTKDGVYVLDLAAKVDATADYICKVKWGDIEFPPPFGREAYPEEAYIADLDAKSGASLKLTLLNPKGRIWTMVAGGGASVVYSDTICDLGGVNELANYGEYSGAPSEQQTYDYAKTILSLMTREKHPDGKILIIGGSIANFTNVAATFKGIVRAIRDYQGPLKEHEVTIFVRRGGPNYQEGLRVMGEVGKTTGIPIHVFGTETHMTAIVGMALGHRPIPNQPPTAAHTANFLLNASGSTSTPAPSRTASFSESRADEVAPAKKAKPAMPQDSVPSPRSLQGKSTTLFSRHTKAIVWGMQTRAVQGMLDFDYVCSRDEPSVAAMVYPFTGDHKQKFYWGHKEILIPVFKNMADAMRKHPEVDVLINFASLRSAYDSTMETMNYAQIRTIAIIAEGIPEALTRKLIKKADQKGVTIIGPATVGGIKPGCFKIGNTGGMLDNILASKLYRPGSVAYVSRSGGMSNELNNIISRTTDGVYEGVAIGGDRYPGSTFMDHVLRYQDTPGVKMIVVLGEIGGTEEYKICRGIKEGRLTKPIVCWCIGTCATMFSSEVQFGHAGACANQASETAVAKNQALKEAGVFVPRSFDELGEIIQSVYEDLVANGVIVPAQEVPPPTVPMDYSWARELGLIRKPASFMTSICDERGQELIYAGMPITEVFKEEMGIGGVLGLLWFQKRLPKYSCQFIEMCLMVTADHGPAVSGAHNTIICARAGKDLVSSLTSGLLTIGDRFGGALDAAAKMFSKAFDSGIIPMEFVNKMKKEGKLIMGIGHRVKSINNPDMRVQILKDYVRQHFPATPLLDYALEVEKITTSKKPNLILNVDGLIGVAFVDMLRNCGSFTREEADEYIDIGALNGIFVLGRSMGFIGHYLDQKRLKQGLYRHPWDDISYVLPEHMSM
assay overview: cryo-EM structure
Format: binding
assay metric: pKd
# reply with the number alone; pKd is -log10 of concentration in mol/L

Exam item: Provide measured pKd value, entry: O=C(O)CC(=O)C(=O)O [OAA, oxaloacetate]
Marked response: 4.82
